Kindly supply the reported viability, T/C values for the records listed here.
- System: 996289-038-R-J1-PDC spheroid viability
- Experimental Details: Anticancer human tumor 996289-038-R-J1-PDC patient-derived colon adenocarcinoma cell line growth inhibition [PI3K]
- Assay Conditions: second compound 0.0316 µM; first compound 0.001 µM; stronger effect = lower value; spheroids with HUVEC and MSC
Answer with a number only, understood to be in %.

[Q] What value of viability, T/C on 996289-038-R-J1-PDC spheroid viability does CC(=O)c1c(C)c2cnc(Nc3ccc(N4CCNCC4)cn3)nc2n(C2CCCC2)c1=O + CC(Nc1ccc2c(c1)OCCn1cc(N3C(=O)OCC3C(F)F)nc1-2)C(N)=O have?
[A] 85.3

[Q] Thanks! And CC(=O)c1c(C)c2cnc(Nc3ccc(N4CCNCC4)cn3)nc2n(C2CCCC2)c1=O + COc1c(OCCCN2CCOCC2)ccc2c3n(c(=NC(=O)c4cnc(N)nc4)nc12)CCN3 ?
[A] 81.4

[Q] Also check CC(C)n1nc(-c2ccc3oc(N)nc3c2)c2c(N)ncnc21 + Cc1nc(NC(=O)N2CCCC2C(N)=O)sc1-c1ccnc(C(C)(C)C(F)(F)F)c1
[A] 83.5

[Q] Next up: CC(C)n1nc(-c2ccc3oc(N)nc3c2)c2c(N)ncnc21 + COc1c(OCCCN2CCOCC2)ccc2c3n(c(=NC(=O)c4cnc(N)nc4)nc12)CCN3
[A] 73.7

[Q] Next record, please: CC(=O)c1c(C)c2cnc(Nc3ccc(N4CCNCC4)cn3)nc2n(C2CCCC2)c1=O + CC(Nc1ncnc2nc[nH]c12)c1cc2cccc(Cl)c2c(=O)n1-c1ccccc1
[A] 96.3

[Q] Further, for CC(=O)c1c(C)c2cnc(Nc3ccc(N4CCNCC4)cn3)nc2n(C2CCCC2)c1=O + Cc1nc(NC(=O)N2CCCC2C(N)=O)sc1-c1ccnc(C(C)(C)C(F)(F)F)c1 ?
[A] 83.4

[Q] Another molecule: Cn1ncnc1[C@H]1c2n[nH]c(=O)c3cc(F)cc(c23)N[C@@H]1c1ccc(F)cc1 + CC(Nc1ncnc2nc[nH]c12)c1cc2cccc(Cl)c2c(=O)n1-c1ccccc1
[A] 99.7

[Q] What do we get for Cn1ncnc1[C@H]1c2n[nH]c(=O)c3cc(F)cc(c23)N[C@@H]1c1ccc(F)cc1 + CC(Nc1ccc2c(c1)OCCn1cc(N3C(=O)OCC3C(F)F)nc1-2)C(N)=O ?
[A] 85.7

[Q] Entry to check: CC(C)n1nc(-c2ccc3oc(N)nc3c2)c2c(N)ncnc21 + CC(Nc1ncnc2nc[nH]c12)c1cc2cccc(Cl)c2c(=O)n1-c1ccccc1
[A] 88.6

[Q] Same question for Cn1ncnc1[C@H]1c2n[nH]c(=O)c3cc(F)cc(c23)N[C@@H]1c1ccc(F)cc1 + COc1c(OCCCN2CCOCC2)ccc2c3n(c(=NC(=O)c4cnc(N)nc4)nc12)CCN3 please.
[A] 91.3

[Q] Cn1ncnc1[C@H]1c2n[nH]c(=O)c3cc(F)cc(c23)N[C@@H]1c1ccc(F)cc1 + Cc1nc(NC(=O)N2CCCC2C(N)=O)sc1-c1ccnc(C(C)(C)C(F)(F)F)c1 ?
[A] 117

[Q] And what about the molecule CC(C)n1nc(-c2ccc3oc(N)nc3c2)c2c(N)ncnc21 + CC(Nc1ccc2c(c1)OCCn1cc(N3C(=O)OCC3C(F)F)nc1-2)C(N)=O ?
[A] 95.6

###

- Test system: 996289-038-R-J1-PDC spheroid viability
- Experimental Details: Anticancer human tumor 996289-038-R-J1-PDC cell line growth inhibition [PI3K];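 also: spheroids exposed to compounds for seven days before viability read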;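 as to viability, T/C: luminescence used as a proxy for viable cell amount; percent viability relative to DMSO vehicle control as 100%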
- Assay Conditions: second compound 3.16 µM; first compound 0.00316 µM; stronger effect = lower value; spheroids with HUVEC and MSC
- Excerpt: Combinatorial screen of targeted agents with the PI3K inhibitors inavolisib, alpelisib, duvelisib, and copanlisib in multi-cell type tumor spheroids A high-throughput screen of multi-cell type tumor spheroids was designed to identify active combinations of targeted small molecules and PI3K pathway inhibitors. […] Compounds. […] If the clinical Cmax for an agent had not been determined, the highest concentration tested was 10 microM. […]
Answer each item with its documented viability, T/C.
# output: bare number, implied unit %

[Q] Endpoint output: viability, T/C of CC(C)n1nc(-c2ccc3oc(N)nc3c2)c2c(N)ncnc21 + CC(Nc1ncnc2nc[nH]c12)c1cc2cccc(Cl)c2c(=O)n1-c1ccccc1 . Value?
[A] 86.2

[Q] Also need CC(=O)c1c(C)c2cnc(Nc3ccc(N4CCNCC4)cn3)nc2n(C2CCCC2)c1=O + CC(Nc1ncnc2nc[nH]c12)c1cc2cccc(Cl)c2c(=O)n1-c1ccccc1 , thanks.
[A] 88.4

[Q] Same thing, different molecule: Cn1ncnc1[C@H]1c2n[nH]c(=O)c3cc(F)cc(c23)N[C@@H]1c1ccc(F)cc1 + Cc1nc(NC(=O)N2CCCC2C(N)=O)sc1-c1ccnc(C(C)(C)C(F)(F)F)c1
[A] 64

[Q] How about CC(=O)c1c(C)c2cnc(Nc3ccc(N4CCNCC4)cn3)nc2n(C2CCCC2)c1=O + Cc1nc(NC(=O)N2CCCC2C(N)=O)sc1-c1ccnc(C(C)(C)C(F)(F)F)c1 ?
[A] 62.7

[Q] And Cn1ncnc1[C@H]1c2n[nH]c(=O)c3cc(F)cc(c23)N[C@@H]1c1ccc(F)cc1 + CC(Nc1ncnc2nc[nH]c12)c1cc2cccc(Cl)c2c(=O)n1-c1ccccc1 ?
[A] 94.5

[Q] And what about the molecule CC(C)n1nc(-c2ccc3oc(N)nc3c2)c2c(N)ncnc21 + Cc1nc(NC(=O)N2CCCC2C(N)=O)sc1-c1ccnc(C(C)(C)C(F)(F)F)c1 ?
[A] 48.5

[Q] Try the molecule CCN1CCN(Cc2ccc(Nc3ncc(F)c(-c4cc(F)c5nc(C)n(C(C)C)c5c4)n3)nc2)CC1 + Cc1nc(NC(=O)N2CCCC2C(N)=O)sc1-c1ccnc(C(C)(C)C(F)(F)F)c1
[A] 51.4

[Q] Now consider CCN1CCN(Cc2ccc(Nc3ncc(F)c(-c4cc(F)c5nc(C)n(C(C)C)c5c4)n3)nc2)CC1 + CC(Nc1ncnc2nc[nH]c12)c1cc2cccc(Cl)c2c(=O)n1-c1ccccc1 and answer again.
[A] 98.1

###

- System: 996289-038-R-J1-PDC spheroid viability
- Experimental Details: Anticancer human tumor 996289-038-R-J1-PDC cell line growth inhibition [PI3K];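 also: spheroids exposed to compounds for seven days before viability read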
- Assay Conditions: curve of first compound; second compound 0.316 µM; spheroids with HUVEC and MSC
pIC50: −log10 of the molar value.
Classification field: Yes = pIC50 at or over 7; No = pIC50 under 7.

[Q] Given Cn1nccc1Nc1nccc(-c2ccn(C(CO)c3ccc(Cl)c(F)c3)c(=O)c2)n1 (stereo unspecified) + Cc1nc(NC(=O)N2CCCC2C(N)=O)sc1-c1ccnc(C(C)(C)C(F)(F)F)c1 , state whether its pIC50 is at least 7.
[A] No

[Q] Input CC(C)n1nc(-c2ccc3oc(N)nc3c2)c2c(N)ncnc21 + Cc1nc(NC(=O)N2CCCC2C(N)=O)sc1-c1ccnc(C(C)(C)C(F)(F)F)c1
[A] Yes

[Q] Further, for C#Cc1c(F)ccc2cc(O)cc(-c3ncc4c(N5CC6CCC(C5)N6)nc(OCC56CCCN5CC(F)C6)nc4c3F)c12 (stereo unspecified) + Cc1nc(NC(=O)N2CCCC2C(N)=O)sc1-c1ccnc(C(C)(C)C(F)(F)F)c1 ?
[A] No

[Q] Try Cn1ncnc1[C@H]1c2n[nH]c(=O)c3cc(F)cc(c23)N[C@@H]1c1ccc(F)cc1 + CC(Nc1ncnc2nc[nH]c12)c1cc2cccc(Cl)c2c(=O)n1-c1ccccc1 next.
[A] No

[Q] Repeat for the following molecule: CCCS(=O)(=O)Nc1ccc(F)c(C(=O)c2c[nH]c3ncc(-c4ccc(Cl)cc4)cc23)c1F + CC(Nc1ccc2c(c1)OCCn1cc(N3C(=O)OCC3C(F)F)nc1-2)C(N)=O
[A] No

[Q] Another: C#Cc1c(F)ccc2cc(O)cc(-c3ncc4c(N5CC6CCC(C5)N6)nc(OCC56CCCN5CC(F)C6)nc4c3F)c12 (stereo unspecified) + COc1c(OCCCN2CCOCC2)ccc2c3n(c(=NC(=O)c4cnc(N)nc4)nc12)CCN3
[A] Yes

[Q] Consider next the molecule Cn1cnc2c(F)c(Nc3ccc(Br)cc3Cl)c(C(=O)NOCCO)cc21 + CC(Nc1ccc2c(c1)OCCn1cc(N3C(=O)OCC3C(F)F)nc1-2)C(N)=O in the same way.
[A] Yes

[Q] Same again, this time with Cn1ncc(Cl)c1-c1cc(C(=O)NC(CN)Cc2cccc(F)c2)sc1Cl (stereo unspecified) + CC(Nc1ncnc2nc[nH]c12)c1cc2cccc(Cl)c2c(=O)n1-c1ccccc1
[A] No

[Q] Similarly, CC(C)NCC(C(=O)N1CCN(c2ncnc3c2C(C)CC3O)CC1)c1ccc(Cl)cc1 (stereo unspecified) + Cc1nc(NC(=O)N2CCCC2C(N)=O)sc1-c1ccnc(C(C)(C)C(F)(F)F)c1 ?
[A] No

[Q] Repeat with C#Cc1c(F)ccc2cc(O)cc(-c3ncc4c(N5CC6CCC(C5)N6)nc(OCC56CCCN5CC(F)C6)nc4c3F)c12 (stereo unspecified) + CC(Nc1ccc2c(c1)OCCn1cc(N3C(=O)OCC3C(F)F)nc1-2)C(N)=O
[A] No

[Q] Query Cn1ncc(Cl)c1-c1cc(C(=O)NC(CN)Cc2cccc(F)c2)sc1Cl (stereo unspecified) + CC(Nc1ccc2c(c1)OCCn1cc(N3C(=O)OCC3C(F)F)nc1-2)C(N)=O next
[A] No

Value source: PubChem BioAssay AID1963965
